Test system: KM-20L2
Experiment: NCI tumour cell line growth inhibition, 48 h
Active and inactive are the calls of the source. Rule as the data show it: active = GI50 up to about 1.1 µM and inactive = higher.
Entry note: the call must match one of yes for active, no for inactive

Prompt: Please let me know the test result on file for COC(=O)NN1C(=O)C(=P(c2ccccc2)(c2ccccc2)c2ccccc2)C(C(=O)OC)=C1C .
Response: no

Prompt: Please let me know the test result on file for Nc1nnc(O)c2c1c(I)cn2C1OC(CO)C(O)C1O (stereo unspecified) .
Response: no

Prompt: Please let me know the test result on file for CC1(C)C(=O)CCC(=O)C(C)(C)C2=CC=C(O2)C(C)(C)C(=O)CCC(=O)C(C)(C)C2=CC=C1O2 .
Response: no

Prompt: Please let me know the test result on file for O=C1C2C3C=C4c5ccccc5N(c5ccccc5)C4(C2C(=O)N1c1ccccc1)C1C(=O)N(c2ccccc2)C(=O)C31 (stereo unspecified) .
Response: no

Prompt: Please let me know the test result on file for CSC(=S)N(C)NC(=O)c1cccc(C(=O)NN(C)C(=S)SC)n1 .
Response: no

Prompt: Please let me know the test result on file for Cc1cccc2cc3cccc(C(=O)NCCN(C)C)c3nc12 .
Response: yes

Prompt: Please let me know the test result on file for C/C(=N\NC(=S)N1CCC(C2CCN(C(=S)N/N=C(\C)c3ccccn3)CC2)CC1)c1ccccn1 .
Response: no

Prompt: Please let me know the test result on file for COc1ccc(NCc2cc(OC)cc(OC)c2)cc1 .
Response: no

Prompt: Please let me know the test result on file for Cc1cccc(NC(=O)C(=O)C(C2OC(=O)c3ccccc32)[N+](=O)[O-])c1C (stereo unspecified) .
Response: no

Prompt: Please let me know the test result on file for CCO[C@@H]1OC(=O)[C@](C)(C(C)=O)[C@@H]1C .
Response: no

Prompt: Please let me know the test result on file for CC(=O)Nc1ccc(/C=c2\sc3nnc(/C=C/c4ccccc4)n3c2=O)cc1 .
Response: no

Prompt: Please let me know the test result on file for Nc1nc2c3nc(Nc4ccccc4)sc3nc(=O)n2c2sc(Nc3ccccc3)nc12 .
Response: no

Prompt: Please let me know the test result on file for O=C1CCNC(=O)NC1 .
Response: no

Prompt: Please let me know the test result on file for C#CCN(N=O)C(=O)NCCCCC(NC(C)=O)C(=O)NCc1ccccc1 (stereo unspecified) .
Response: no

Prompt: Please let me know the test result on file for CCn1c2ccccc2c2ccc3c(c21)C(=O)c1ccccc1C3=O .
Response: no

Prompt: Please let me know the test result on file for N/C(=N\O)N/N=C/c1cccc(F)c1 .
Response: no
